# Assay System: C. difficile toxin A from strain VPI10463 (ATCC 43255), toxinotype 0 (Clostridium difficile, UniProt P16154 1-2710)
# Sequence (P16154 whole entry): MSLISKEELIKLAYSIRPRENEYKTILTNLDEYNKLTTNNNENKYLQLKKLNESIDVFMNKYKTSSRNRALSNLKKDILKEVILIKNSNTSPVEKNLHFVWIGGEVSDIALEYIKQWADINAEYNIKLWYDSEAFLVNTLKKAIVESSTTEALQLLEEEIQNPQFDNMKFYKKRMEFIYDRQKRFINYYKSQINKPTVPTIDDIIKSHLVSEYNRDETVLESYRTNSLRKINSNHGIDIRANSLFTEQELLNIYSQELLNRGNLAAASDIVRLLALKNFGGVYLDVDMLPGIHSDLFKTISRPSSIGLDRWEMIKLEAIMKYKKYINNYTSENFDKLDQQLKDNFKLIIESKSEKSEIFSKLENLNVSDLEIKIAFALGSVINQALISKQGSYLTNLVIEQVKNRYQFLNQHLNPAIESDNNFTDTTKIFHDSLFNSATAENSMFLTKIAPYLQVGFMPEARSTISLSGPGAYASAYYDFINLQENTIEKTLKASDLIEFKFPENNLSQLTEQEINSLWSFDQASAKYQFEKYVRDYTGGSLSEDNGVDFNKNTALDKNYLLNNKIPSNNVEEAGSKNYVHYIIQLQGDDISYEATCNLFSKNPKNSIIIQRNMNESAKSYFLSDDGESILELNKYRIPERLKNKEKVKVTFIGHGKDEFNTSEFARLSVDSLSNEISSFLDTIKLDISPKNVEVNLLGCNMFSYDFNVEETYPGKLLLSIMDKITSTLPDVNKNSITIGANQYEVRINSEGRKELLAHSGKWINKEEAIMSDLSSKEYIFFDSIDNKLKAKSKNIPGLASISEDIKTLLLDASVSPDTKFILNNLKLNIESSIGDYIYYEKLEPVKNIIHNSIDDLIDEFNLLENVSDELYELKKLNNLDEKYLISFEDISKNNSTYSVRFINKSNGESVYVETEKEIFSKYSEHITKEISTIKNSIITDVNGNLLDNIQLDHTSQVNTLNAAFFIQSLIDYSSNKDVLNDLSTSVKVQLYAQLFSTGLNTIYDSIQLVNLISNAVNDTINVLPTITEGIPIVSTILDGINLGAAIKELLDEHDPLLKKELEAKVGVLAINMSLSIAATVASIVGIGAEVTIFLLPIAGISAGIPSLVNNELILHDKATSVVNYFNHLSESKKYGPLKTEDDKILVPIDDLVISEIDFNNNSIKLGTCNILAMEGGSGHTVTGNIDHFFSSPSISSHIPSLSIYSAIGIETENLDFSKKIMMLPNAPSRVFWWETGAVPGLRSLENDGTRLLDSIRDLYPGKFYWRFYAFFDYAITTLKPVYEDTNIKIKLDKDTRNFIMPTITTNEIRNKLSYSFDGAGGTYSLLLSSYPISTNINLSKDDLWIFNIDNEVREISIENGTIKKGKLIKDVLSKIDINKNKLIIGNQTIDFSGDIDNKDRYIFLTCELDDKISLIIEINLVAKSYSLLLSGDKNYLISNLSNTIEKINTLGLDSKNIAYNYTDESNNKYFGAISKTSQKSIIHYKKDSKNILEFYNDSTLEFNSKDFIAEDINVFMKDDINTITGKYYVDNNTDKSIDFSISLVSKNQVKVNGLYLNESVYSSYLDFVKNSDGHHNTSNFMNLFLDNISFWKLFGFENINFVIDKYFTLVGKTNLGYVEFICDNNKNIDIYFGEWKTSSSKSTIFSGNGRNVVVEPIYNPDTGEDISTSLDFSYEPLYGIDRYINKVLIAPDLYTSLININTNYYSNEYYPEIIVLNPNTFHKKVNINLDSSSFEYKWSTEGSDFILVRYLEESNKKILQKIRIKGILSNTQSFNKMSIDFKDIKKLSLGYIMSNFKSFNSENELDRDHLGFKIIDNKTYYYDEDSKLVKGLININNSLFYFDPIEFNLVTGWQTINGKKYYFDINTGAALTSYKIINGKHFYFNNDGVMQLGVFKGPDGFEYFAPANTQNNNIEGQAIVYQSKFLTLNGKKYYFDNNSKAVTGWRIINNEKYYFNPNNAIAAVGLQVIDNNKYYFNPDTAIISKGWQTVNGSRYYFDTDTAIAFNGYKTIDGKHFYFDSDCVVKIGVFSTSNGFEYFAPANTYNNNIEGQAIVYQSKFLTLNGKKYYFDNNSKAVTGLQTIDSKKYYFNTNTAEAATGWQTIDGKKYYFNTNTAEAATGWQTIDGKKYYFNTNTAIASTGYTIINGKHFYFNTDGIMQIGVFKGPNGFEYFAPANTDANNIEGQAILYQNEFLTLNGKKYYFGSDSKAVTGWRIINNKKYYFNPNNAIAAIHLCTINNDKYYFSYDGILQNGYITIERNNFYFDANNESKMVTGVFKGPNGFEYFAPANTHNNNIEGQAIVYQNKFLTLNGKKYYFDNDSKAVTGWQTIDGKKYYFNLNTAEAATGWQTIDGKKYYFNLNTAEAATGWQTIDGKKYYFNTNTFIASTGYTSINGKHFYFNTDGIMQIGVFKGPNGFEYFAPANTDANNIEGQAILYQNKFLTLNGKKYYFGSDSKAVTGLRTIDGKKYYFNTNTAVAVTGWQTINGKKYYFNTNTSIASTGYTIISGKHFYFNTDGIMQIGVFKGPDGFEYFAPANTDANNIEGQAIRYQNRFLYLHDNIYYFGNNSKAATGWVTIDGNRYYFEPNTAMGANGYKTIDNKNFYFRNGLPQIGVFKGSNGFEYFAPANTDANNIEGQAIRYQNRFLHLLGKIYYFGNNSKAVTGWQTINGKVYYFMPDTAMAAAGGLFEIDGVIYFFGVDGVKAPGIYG
# Assay Overview: cell-based or functional assay
Readout Type: % completion cytotox (Vero cells) (%)
Answers are plain numbers, in %.

>  <Binder>
A2 antibody (antibody, V domains shown) VH: QVQLQESGPGLVKPSETLSLTCTVSGGSISTYYWSWIRQSPGKGLEWMGYIYYSGSTNYNPSLESRVTIAVDTSKNQFSLQLTSVTAADTAVYYCARGAAEWLRFRGFFDSWGQGTLVTVSS VL: ENVLTQSPGTLSLSPGERATLSCRASHSVTNNFLAWYQQKPGQAPRLLIYGVSSRATGIPDRFSGSGSGTDFTLTISRLEPEDFAVYYCQQYGVSGTFGQGTKLEIKR

>  <Readout Type>
% completion cytotox (Vero cells)

>  <Assay Value>
100

$$$$

Turning to the following binder.
Data request: Recorded % completion cytotox (Vero cells) of A5 antibody (antibody, V domains shown) VH: QVHLVESGGGVVQPGRSLRLSCATFGLNFSDYGFHWVRQAPGKGLEWVAVTSYDGSNKYYAEFVKGRFTISRDNYKNTVYLQMNSLRLEDTAVYYCARDLAPYNFWSGYGNNWFDPWGQGTLVTVSS VL: EIVMTQSPATLSVSPGERATLSCRASQSISSNLAWYQQKPGQAPRLLIYDASTRATGIPARFSGSGSGTEFTLTISSLQSEDFAVYYCQQYNDWLVTFGQGTKVEIKR , please.
Data returned: 75

Provenance of the data: patent US20190153078A1
